target: UniProt:Q8NET8; assay: Whole-cell patch clamp, hTRPV3 Phase 1 / Phase 2 currents; type: cell-based; settings: Phase 2 current, inward, whole-cell patch clamp; read-out: hTRPV3 Patch P2 Inwd
pIC50: −log10 of the molar value. Structures can show the parent of a compound that is named as a salt.
PROPERTY LABEL: pIC50

Example entries begin here.
COMPOUND | SUBJECT OF TEST | pIC50
CN(C)Cc1ccccc1N1CC[C@@H](Oc2ccc(C(F)(F)F)cn2)C1 [Compound 1-60, hydrochloride] | UniProt:Q8NET8 | < 6.00
OCc1cc(Oc2ccccc2)ccc1N1CC[C@H](Oc2ncccc2Cl)C1 [Compound 1-168] | UniProt:Q8NET8 | 7.00 to 8.00
NCc1cc(-c2ccccc2Cl)ccc1N1CC[C@H](Oc2ncccc2Cl)C1 [Compound 1-122, hydrochloride] | UniProt:Q8NET8 | < 6.00
COc1ccccc1Oc1ccc(N2CC[C@H](Oc3ncccc3C)C2)c(CO)c1 [Compound 1-340] | UniProt:Q8NET8 | 7.00 to 8.00
CCc1ccccc1C(O)c1ccc(N2CC[C@H](Oc3ncccc3Cl)C2)c(CO)c1 (some centres unmarked) [Compound 1-257] | UniProt:Q8NET8 | < 6.00

Query :: Hi! What's the reported pIC50 for O=C(c1ccc(Cl)cc1)c1ccc(N2CC[C@H](Oc3ncccc3Cl)C2)c(CCO)c1 [Compound 1-291] on UniProt:Q8NET8?
Result :: 6.00 to 7.00

Query :: GET /values?readout=pIC50&system=UniProt:Q8NET8&item= Cc1ccccc1Oc1ccc(N2CC[C@H](Oc3ncccc3Cl)C2)c(CO)c1 [Compound 1-173]
Result :: 7.00 to 8.00

Query :: Find the measured pIC50: item OCc1cc(Oc2ccccc2F)ccc1N1CC[C@H](Oc2ncccc2F)C1 [Compound 1-298] , target or system UniProt:Q8NET8.
Result :: 7.00 to 8.00

Query :: Please state recorded pIC50 (tested on UniProt:Q8NET8) of Cc1ccc(C(=O)c2ccc(N3CC[C@H](Oc4ncccc4F)C3)c(CCO)c2)cc1 [Compound 1-309]
Result :: 6.00 to 7.00

Query :: So what pIC50 did CCc1ccccc1S(=O)(=O)c1ccc(N2CC[C@H](Oc3ncccc3Cl)C2)c(CCO)c1 [Compound 1-342] get with UniProt:Q8NET8?
Result :: < 6.00

Query :: Value wanted: pIC50 (UniProt:Q8NET8) of entry Cc1ccc(O[C@H]2CCN(c3ccc(-c4ccccc4C)nc3CO)C2)nc1 [Compound 1-189]
Result :: < 6.00

Query :: Form entry - test system: UniProt:Q8NET8; read-out: pIC50; compound: OCCOc1cc(-c2ccccc2)ccc1N1CC[C@@H](Oc2ccc(C(F)(F)F)cn2)C1 [Compound 1-117]
Result :: 6.00 to 7.00

Query :: pIC50 of NC(=O)c1c(-c2ccccc2)cccc1N1CC[C@H](Oc2ccc(C(F)(F)F)cn2)C1 [Compound 1-72] on UniProt:Q8NET8?
Result :: < 6.00

---

target: hTRPV3 (Homo sapiens (Human)); assay: Whole-cell patch clamp, hTRPV3 Phase 1 / Phase 2 currents; assay type: cell-based; conditions: Phase 2 current, inward, whole-cell patch clamp; read-out: hTRPV3 Patch P2 Inwd
Sequence (Q8NET8 whole entry): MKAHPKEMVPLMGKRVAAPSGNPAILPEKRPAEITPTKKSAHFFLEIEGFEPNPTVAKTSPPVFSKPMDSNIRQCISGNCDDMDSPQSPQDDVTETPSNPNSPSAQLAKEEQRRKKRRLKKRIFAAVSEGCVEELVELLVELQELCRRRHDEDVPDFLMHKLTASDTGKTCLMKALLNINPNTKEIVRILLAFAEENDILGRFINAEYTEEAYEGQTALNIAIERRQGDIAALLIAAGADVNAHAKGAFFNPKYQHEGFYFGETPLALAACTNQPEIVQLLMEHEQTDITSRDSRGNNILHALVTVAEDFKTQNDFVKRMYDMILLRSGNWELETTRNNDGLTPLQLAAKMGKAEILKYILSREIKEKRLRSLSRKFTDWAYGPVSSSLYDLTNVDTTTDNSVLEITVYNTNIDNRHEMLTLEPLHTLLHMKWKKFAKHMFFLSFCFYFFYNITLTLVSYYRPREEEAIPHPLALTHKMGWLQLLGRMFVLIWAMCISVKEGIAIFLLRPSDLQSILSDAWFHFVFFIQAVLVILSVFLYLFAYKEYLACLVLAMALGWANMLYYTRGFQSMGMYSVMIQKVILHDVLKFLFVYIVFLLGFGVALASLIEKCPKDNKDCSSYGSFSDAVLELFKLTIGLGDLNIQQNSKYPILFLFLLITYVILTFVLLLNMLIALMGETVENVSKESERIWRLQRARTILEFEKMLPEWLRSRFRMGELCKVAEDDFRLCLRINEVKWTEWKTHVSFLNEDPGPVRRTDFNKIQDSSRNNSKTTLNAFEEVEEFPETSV
PROPERTY LABEL: IC50

// below: answered molecules
MOLECULE | SUBJECT OF TEST | IC50
Cc1ccccc1-c1ccc(N2CC[C@H](Nc3ccc(C(F)(F)F)cn3)C2)c(CO)n1 | hTRPV3 (Homo sapiens (Human)) | > 1000 nM
OCC(O)c1cc(-c2ccccc2)ccc1N1CC[C@H](Oc2ccc(C(F)(F)F)cn2)C1 (stereo partly shown) | hTRPV3 (Homo sapiens (Human)) | 100 to 1000 nM
COc1ccccc1-c1ccc(N2CC[C@H](Oc3ncccc3C)C2)c(CO)n1 | hTRPV3 (Homo sapiens (Human)) | 100 to 1000 nM
NC(=O)c1cc(-c2ccccc2Cl)ccc1N1CC[C@H](Oc2ccc(C(F)(F)F)cn2)C1 | hTRPV3 (Homo sapiens (Human)) | 100 to 1000 nM
OCc1cc(Oc2ccccc2F)ccc1N1CC[C@H](Oc2ccccn2)C1 | hTRPV3 (Homo sapiens (Human)) | 100 to 1000 nM
NC(=O)c1cc(-c2ccccc2)ccc1N1CC[C@H](Oc2ccc(C(F)(F)F)cn2)C1 | hTRPV3 (Homo sapiens (Human)) | 100 to 1000 nM

Query :: Name the reported IC50 value associated with the molecule O=C(NCc1ccccc1)c1ccccc1N1CC[C@H](Oc2ccc(C(F)(F)F)cn2)C1
Result :: > 1000 nM

Query :: Quick one: IC50 for NC(=O)c1cc(-c2ccccc2)ncc1N1CC[C@@H](Oc2ccc(C(F)(F)F)cn2)C1 ?
Result :: 100 to 1000 nM

Query :: I'd like to know its IC50. The molecule in question is NC(=O)c1cc(-c2ncc[nH]2)ccc1N1CC[C@@H](Oc2ccc(C(F)(F)F)cn2)C1
Result :: > 1000 nM

Query :: Entry O=C(O)c1cc(-c2ccccc2Cl)ccc1N1CC[C@H](Oc2ccc(C(F)(F)F)cn2)C1 : reported IC50 = ?
Result :: > 1000 nM

Query :: Find the recorded IC50 belonging to OCCc1cc(Oc2ccccc2F)ccc1N1CC[C@H](Oc2ncccc2F)C1 and report it.
Result :: 10 to 100 nM

Query :: If you can, please state the reported IC50 value of NC(=O)c1cc(-c2ccncc2)ccc1N1CC[C@@H](Oc2ccccn2)C1 .
Result :: > 1000 nM

Query :: Would you mind telling me what IC50 value was observed for NC(=O)c1cc(-c2ccccc2)ccc1N1CC[C@H](Nc2ncccc2Cl)C1 [Compound 1-377] ?
Result :: 100 to 1000 nM

---

We begin with a simple list: items and their reported IC50.
molecular target: hTRPV3 (Homo sapiens (Human)); test: Whole-cell patch clamp, hTRPV3 Phase 1 / Phase 2 currents; type: cell-based; conditions: Phase 1 current, inward, whole-cell patch clamp; read-out: hTRPV3 Patch P1 Inwd
Where a name gives a salt, the structure may show the parent alone.

Some solved cases for reference:
COMPOUND | IC50
Cc1nccnc1C(=O)N1CCC(c2ccc(-c3ccccc3C3CC3)cc2CO)C1 (centres unmarked) | 100 to 1000 nM
CCc1c(C)cccc1-c1ccc(C2CCN(C(=O)c3ccc(Cl)cn3)C2)c(CO)c1 (centres unmarked) | < 10 nM
COCc1ccccc1Oc1ccc(N2CC[C@H](Oc3ncccc3Cl)C2)c(CCO)c1 | 10 to 100 nM
Cc1cccnc1O[C@H]1CCN(c2ccc(Oc3ccccc3)cc2C(N)=O)C1 | > 1000 nM
CCc1ccccc1-c1ccc(C2CCN(C(=O)c3ccc(OC)cn3)C2)c(CO)c1 (centres unmarked) | 10 to 100 nM
CC(C)Oc1ccccc1N1CC[C@@H](Oc2ccc(C(F)(F)F)cn2)C1 | > 1000 nM

Query :: Could you share what IC50 was measured for CC(C)(C)OC(=O)N1CC=C(c2ccc(N3CC[C@H](Oc4ccc(C(F)(F)F)cn4)C3)c(CO)c2)CC1 , tested on hTRPV3 (Homo sapiens (Human))?
Result :: > 1000 nM

Query :: Tell me reported IC50 for NCc1ccc(N2CC[C@H](Oc3ccc(C(F)(F)F)cn3)C2)c(C(N)=O)c1 , tested with hTRPV3 (Homo sapiens (Human)).
Result :: > 1000 nM

Query :: Value wanted: IC50 (hTRPV3 (Homo sapiens (Human))) of entry OCc1cc(Oc2ccc(Cl)c(Cl)c2)ccc1N1CC[C@H](Oc2ccccn2)C1
Result :: 10 to 100 nM

Query :: Hello, I am looking for reported IC50 with hTRPV3 (Homo sapiens (Human)) for CC(C)c1ccccc1Oc1ccc(C2CCN(C(=O)c3ncccc3Cl)C2)c(C(N)=O)c1 (centres unmarked) . Could you help?
Result :: 100 to 1000 nM

Query :: Any idea what IC50 came out for CCc1ccccc1-c1ccc(CO)c(N2CC[C@H](Oc3ncccc3Cl)C2)c1 on hTRPV3 (Homo sapiens (Human))?
Result :: 10 to 100 nM

Query :: Could you share what IC50 was measured for O=C(NCc1ccccc1)c1ccccc1N1CC[C@@H](Oc2ccc(C(F)(F)F)cn2)C1 , tested on hTRPV3 (Homo sapiens (Human))?
Result :: > 1000 nM

Query :: Record N#Cc1cccc(C(O)c2ccc(N3CC[C@H](Oc4ncccc4Cl)C3)c(CCO)c2)c1 (some centres unmarked) : what is its IC50 with hTRPV3 (Homo sapiens (Human))?
Result :: > 1000 nM

Query :: Item: O=C(c1ccc(Cl)cn1)N1CCC(c2ccc(-c3ccccc3)nc2CO)C1 (centres unmarked) Test system: hTRPV3 (Homo sapiens (Human)) Read-out: IC50 Value: ?
Result :: 100 to 1000 nM

Query :: Query for hTRPV3 (Homo sapiens (Human)): what IC50 does the record show for CC(C)c1ccccc1Oc1ccc(C2CC(=O)N(Cc3ccccn3)C2)c(C(N)=O)c1 (centres unmarked) ?
Result :: > 1000 nM

Query :: Give hTRPV3 (Homo sapiens (Human)) IC50 for CCc1cc(C)ccc1-c1ccc(C2CCN(C(=O)c3ccc(F)cn3)C2)c(CO)c1 (centres unmarked)
Result :: 10 to 100 nM

Query :: Fill in the recorded IC50 for this compound, with hTRPV3 (Homo sapiens (Human)) as test system: OCCc1cc(Oc2ccccc2F)ccc1N1CC[C@H](Oc2ccccn2)C1
Result :: 100 to 1000 nM

Query :: // fetch hTRPV3 (Homo sapiens (Human)) IC50 for Cc1cccc(C(=O)c2ccc(C3CCN(C(=O)c4ncccc4Cl)C3)c(CO)c2)c1 (centres unmarked) [Compound 2-9]
Result :: > 1000 nM

Query :: Which IC50 is reported with hTRPV3 (Homo sapiens (Human)) for this entry: COc1ccccc1-c1ccc(N2CC[C@H](Oc3ccc(F)cn3)C2)c(CO)n1 ?
Result :: > 1000 nM

Query :: What IC50 appears in the records for this compound with hTRPV3 (Homo sapiens (Human))? CCc1ccccc1Oc1ccc(C2CCN(C(=O)c3ccc(Cl)cn3)C2)c(C(N)=O)c1 (centres unmarked)
Result :: 100 to 1000 nM

Query :: Under hTRPV3 (Homo sapiens (Human)): IC50 value of CC(C)c1ccccc1Oc1ccc(C2CCN(Cc3cccc(Cl)n3)C2)c(CO)c1 (centres unmarked) [Compound 2-96, hydrochloride] ?
Result :: 100 to 1000 nM

Query :: Field: IC50 (hTRPV3 (Homo sapiens (Human))). Entry: Cc1ccc(Oc2ccc(N3CC[C@H](Oc4ncccc4Cl)C3)c(CO)c2)cc1
Result :: < 10 nM

Query :: Identify the measured IC50 of Cc1ccc(O[C@H]2CCN(c3ccc(Oc4ccccc4)nc3CO)C2)nc1 for hTRPV3 (Homo sapiens (Human)).
Result :: 100 to 1000 nM

Query :: I'm curious: which IC50 was measured for CCc1ccccc1-c1ccc(C2CCN(C(=O)c3cc(Cl)ccn3)C2)c(CO)c1 (centres unmarked) tested on hTRPV3 (Homo sapiens (Human))?
Result :: 10 to 100 nM

Query :: Fill in the recorded IC50 for this compound, with hTRPV3 (Homo sapiens (Human)) as test system: OCc1cc(Oc2ccccc2)ccc1N1CC[C@H](Oc2ncccc2Cl)C1
Result :: 10 to 100 nM

Query :: Please tell me: IC50 of CC(C)c1ccccc1Oc1ccc(C2CCN(C(=O)c3ccc(Cl)cn3)C2)c(CO)c1 (centres unmarked) , system hTRPV3 (Homo sapiens (Human))?
Result :: 10 to 100 nM

Query :: Provide the documented IC50 with hTRPV3 (Homo sapiens (Human)) as the system for O=[N+]([O-])c1cc(-c2ccccc2)ccc1N1CC[C@H](Oc2ccc3cc(Cl)ccc3n2)C1
Result :: > 1000 nM

Query :: // fetch hTRPV3 (Homo sapiens (Human)) IC50 for N#Cc1ccc(N2CC[C@@H](Oc3ccc(C(F)(F)F)cn3)C2)c(C(N)=O)c1
Result :: > 1000 nM

The origin of these recorded values is patent US12435061B2.
